Test: Stability under mechanical force: ball milling, XRPD
Assay type: physicochemical
Conditions: 500 rpm, 5 minutes, XRPD before and after

{"compound": "Cc1cc(C)c2c(n1)CN(C(=O)CC1CN(c3ccnc(C(F)(F)F)c3)C1)C2 [Crystal Form CSII]", "crystal form after ball milling": "not changed"}
{"compound": "Cc1cc(C)c2c(n1)CN(C(=O)CC1CN(c3ccnc(C(F)(F)F)c3)C1)C2 [Crystal Form CSV]", "crystal form after ball milling": "not changed"}
{"compound": "Cc1cc(C)c2c(n1)CN(C(=O)CC1CN(c3ccnc(C(F)(F)F)c3)C1)C2 [Crystal Form CSIII]", "crystal form after ball milling": "not changed"}
{"compound": "Cc1cc(C)c2c(n1)CN(C(=O)CC1CN(c3ccnc(C(F)(F)F)c3)C1)C2 [Crystal Form CSIV]", "crystal form after ball milling": "not changed"}
